# credit: paper PMC6128713

Assay type: physicochemical
Settings: Buffer pH 7.4, 293.15 K
mole fraction solubility (x) for assorted compounds
MEASURED_ENDPOINT: mole fraction solubility (x) (x · 10^6)

CN1CCc2c(c3cc(F)ccc3n2CCc2n[nH]c(=S)n2C)C1; 8.34
Cc1ccc2c(c1)c1c(n2CCc2n[nH]c(=S)n2C)CCN(C)C1; 1.64
CN1CCc2c(c3ccccc3n2CCc2n[nH]c(=S)n2C)C1; 1.69
CN1CCc2c(c3cc(Cl)ccc3n2CCc2n[nH]c(=S)n2C)C1; 2.66
COc1ccc2c(c1)c1c(n2CCc2n[nH]c(=S)n2C)CCN(C)C1; 5.57
